- System: white blood cells
- assay-overview: MTT cell viability assay, white blood cells
- Type: cell-based
- test-parameters: 100 µM
metric: White Blood Cell Viability % (%)
State the answer as a number, implicitly in %.

Which White Blood Cell Viability % is listed for COc1ccc(-c2nc3ccc(C)cn3c2Nc2c(C)cccc2C)cc1OC [Compound 3] ?
76.176

What White Blood Cell Viability % value was documented for this compound, COc1ccc(-c2nc3ccc(C)cn3c2Nc2c(C)cccc2C)c(OC)c1 [Compound 13] ?
97.479

Please look up its White Blood Cell Viability %: COc1ccc(OC)c(-c2nc3ccc(Br)cn3c2NCc2ccccc2)c1 [Compound 4]
88.943

# query: White Blood Cell Viability % of entry NC(=O)c1ccc2nc(-c3ccc(OCc4ccccc4)cc3OCc3ccccc3)c(NC3CCCCC3)n2c1 [Compound 7]
93.834

* * *

- Test system: caspase 3 in HT-29 cells
- assay-overview: Caspase 3 colorimetric assay, HT-29 lysates
- Assay type: cell-based, human
- test-parameters: time of exposure
- Procedure: As it is well known that caspases play a vital role in the execution of apoptosis, the level of caspase 3 and caspase 8 enzymatic activity in the cell lysates were determined using a caspase 3 and caspase 8 colorimetric assay kit (FIGS. 3A and B). […] The activation of caspases initiates apoptosis in mammalian cells. Caspase 3 and Caspase 8 were detected using the CPP32 and FLICE colorimetric Assay kits, respectively. […]
Provide the reported time at which high caspase 3 levels were observed of each item.

Kindly state the measured time at which high caspase 3 levels were observed obtained for COc1ccc(-c2nc3ccc(Br)cn3c2Nc2c(C)cccc2C)cc1OC [Compound 6] with caspase 3 in HT-29 cells.
2 h

Hi! What's the reported time at which high caspase 3 levels were observed for COc1ccc(-c2nc3ccc(C)cn3c2Nc2c(C)cccc2C)cc1OC [Compound 3] on caspase 3 in HT-29 cells?
4 h

Form entry - test system: caspase 3 in HT-29 cells; read-out: time at which high caspase 3 levels were observed; compound: COc1ccc(-c2nc3ccc(-c4ccccc4)cn3c2Nc2c(C)cccc2C)cc1OC [Compound 14]
2 h

Form field: time at which high caspase 3 levels were observed recorded for COc1ccc(OC)c(-c2nc3ccc(Br)cn3c2NCc2ccccc2)c1 [Compound 4] with caspase 3 in HT-29 cells (enter value)
2 h
